Target: CXCR2 (Homo sapiens)
Construct: expressed in transfected cells; host or cells: Ba/F3 (Baf3) cells; membranes, clone designation [Hi70]
Sequence (P25025 whole entry): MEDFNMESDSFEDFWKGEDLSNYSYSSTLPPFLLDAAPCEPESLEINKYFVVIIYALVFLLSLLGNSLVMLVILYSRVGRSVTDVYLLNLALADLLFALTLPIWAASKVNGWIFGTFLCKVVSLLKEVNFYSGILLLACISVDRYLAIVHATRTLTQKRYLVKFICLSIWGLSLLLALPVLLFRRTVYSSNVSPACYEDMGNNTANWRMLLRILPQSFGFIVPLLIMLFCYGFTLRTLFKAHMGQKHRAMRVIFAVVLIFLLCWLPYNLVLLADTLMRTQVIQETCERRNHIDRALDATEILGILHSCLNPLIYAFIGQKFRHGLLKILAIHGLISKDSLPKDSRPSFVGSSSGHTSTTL
Test: [35S]GTPγS Binding Assay: inhibition of agonist (GROα) stimulated [35S]GTPγS exchange in membranes expressing CXCR2
Assay type: biochemical
Conditions: 1 h; 3 nM compound; Baf3/hCXCR2 membranes; percent inhibition at highest chemokine (hGROα) concentration 500 nM; control (no compound) = 0%, standard = 100%; read-out: % Inhibition GTPyS
metric: inhibition at 0.003 µM (%)

CCc1oc([C@@H](CC)Nc2c(Nc3cccc(C(=O)N4CCC4)c3O)c(=O)c2=O)cc1Br | 103
CC[C@@H](Nc1c(Nc2cccc(C(=O)N3CCCC3)c2O)c(=O)c1=O)c1cc(Br)c(C)o1 | 110
CC[C@@H](Nc1c(Nc2cccc(C(=O)N(C)C)c2O)c(=O)c1=O)c1cc(C(C)C)c(C2CC2)o1 | 105
